B1: ZNF649 (parent)
chain: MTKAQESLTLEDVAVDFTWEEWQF

variants of: B1; experiment: protein stability index of a GFP-peptide fusion (GPS, HEK-293T) (PSI 1-6); higher = more stable; conditions: c terminus: a fixed tail appended;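 further: lentivirally expressed fusions sorted by FACS into six bins by GFP to DsRed ratio, PSI derived from sequencing read proportions per bin multiplied by bin number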
parameter: protein stability index
# print the numeric value only

MTKAQESLTLEDVAVDFTWEERQF [W22R]
3.69
MTKAQESLMLEDVAVDFTWEEWQF [T9M]
3.16
MTKAQESLTLEDVAVDFTEEEWQF [W19E]
4.66
MTKAQPSLTLEDVAVDFTWEEWQF [E6P]
2.78

## Input Fill blank: measured protein stability index of the variant MTKAQEYLTLEDVAVDFTWEEWQF [S7Y] is ____.
## Output 2.54

## Input State the recorded protein stability index for this entry: MTKAWESLTLEDVAVDFTWEEWQF [Q5W]
## Output 1.49

## Input Given the entry MTKAPESLTLEDVAVDFTWEEWQF [Q5P] , report its measured protein stability index.
## Output 3.04

## Input What measured protein stability index goes with MTKAQETLTLEDVAVDFTWEEWQF [S7T] ?
## Output 3.67

## Input Given MTKAQESLTLEDVAVDFTWEAWQF [E21A] , state its recorded protein stability index.
## Output 2.12

## Input So what does the record say about protein stability index for MKKAQESLTLEDVAVDFTWEEWQF [T2K] ?
## Output 3.77

## Input Please report the recorded protein stability index for MTKAQESLTLEDVAVDFTWEMWQF [E21M] .
## Output 2.25
